experiment: NCI Yeast Anticancer Drug Screen. Data for the mec2-1 strain (AID 157); details: S. cerevisiae mec2-1 strain, at 50.0 µM
Compounds without any hit were thinned out: in the full panel of roughly 79,000, 15% have a hit. The source made the active and inactive calls. No stated cut-off is given here; in the data, active means growth inhibition above about 70%; inactive means the rest.
# valid calls are active, inactive; nothing else

Below are worked cases with known answers.
[
  {
    "Compound": "O=C1c2ccccc2C(=O)c2cc(S(=O)(=O)Nc3ccccc3)ccc21",
    "Discrete Label": "active"
  },
  {
    "Compound": "O=[N+]([O-])c1cc(S(=O)(=O)Nc2ccccc2)ccc1Cl",
    "Discrete Label": "active"
  },
  {
    "Compound": "CCCCCCCCCCCCCCCCCCNC(=S)/N=C\\C1=C(O)c2ccccc2C1=O",
    "Discrete Label": "inactive"
  },
  {
    "Compound": "CC(C)c1[nH]nc(C(N)=O)c1N=NN(C)C",
    "Discrete Label": "inactive"
  }
]

Now consider a different compound.
Task: Each compound tested received a call. Report the one for Cc1c(-c2ccccc2)[nH]c2ccccc12 .
Output: active

====

experiment: NCI Yeast Anticancer Drug Screen. Data for the rad50 strain (AID 155);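 further: 0% = growth of vehicle-only cultures of the same strain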; details: S. cerevisiae rad50 strain growth inhibition; at 33.0 µM; stronger effect = higher value
The panel holds about 79,000 compounds, 15% with a hit somewhere; the sample as a whole holds those more often. Activity calls are given as the source filed them. Cut-off read from the data, not from the text of the source: active = growth inhibition above about 70%; inactive = the rest.
The following compounds are shown together with reported growth inhibition values.

Use the examples below as a reference point.
[
  {
    "Compound": "CCNc1ccc2c(c1)C(=O)N(OS(C)(=O)=O)C2=O",
    "Recorded Result": "18% (inactive)"
  },
  {
    "Compound": "Cc1ccc(S(=O)(=O)N(C)c2ccc(Cl)cc2C2=NCCc3ccccc32)cc1",
    "Recorded Result": "3% (inactive)"
  },
  {
    "Compound": "COc1ccc(/C(C#N)=C/c2ccc(OC)c(OC)c2)cc1",
    "Recorded Result": "6% (inactive)"
  },
  {
    "Compound": "COC(=O)c1n[nH]c(C)c1N=NN(C)CCC#N",
    "Recorded Result": "98% (active)"
  },
  {
    "Compound": "CCC(=O)N(c1ccccc1)C(C)CN1CCC(O)(c2cccc(C(F)(F)F)c2)CC1 (stereo not given)",
    "Recorded Result": "26% (inactive)"
  }
]

Task: # input compound: Cc1cc(O)c2c(c1O)C(=O)C13C(=C2O)C(=O)C2C(O)C1C1C(O)C3C(=O)C3=C(O)c4c(O)cc(C)c(O)c4C(=O)C321 (stereo not given) ; wanted: its growth inhibition
Output: 79% (active)

Task: # input compound: Clc1nc(C(Cl)Cl)nc2sc3c(c12)CCCC3 ; wanted: its growth inhibition
Output: 31% (inactive)

Task: # input compound: c1ccc(N2N=C3N(c4ccccc4)C2N3c2ccccc2)cc1 ; wanted: its growth inhibition
Output: 70% (active)

Task: # input compound: CC(=O)N1C(=O)/C(=C\C(=O)c2ccc([N+](=O)[O-])cc2)c2ccccc21 ; wanted: its growth inhibition
Output: 93% (active)

Task: # input compound: N#CC(=C1C=CC(=NO)C=C1)c1ccccc1 ; wanted: its growth inhibition
Output: 99% (active)

====

Assay: NCI Yeast Anticancer Drug Screen. Data for the mec2-1 strain (AID 157)
Settings: S. cerevisiae mec2-1 strain, at 50.0 µM
Procedure: Growth inhibition of yeast strains with defined genetic alterations is measured as a screen for potential anti-cancer activity. Selected strains with alterations in DNA damage repair or cell cycle control were exposed to compounds and growth inhibition was measured relative to vehicle treated controls. The strain used in this assay is mec2-1
About 79,000 compounds went through this panel and 15% of them were active in at least one assay; those are over-represented in the sample as a whole. The source made the active and inactive calls. No stated cut-off is given here; in the data, active means growth inhibition above about 70%; inactive means the rest.
# valid calls are yes (1) for active, no (0) for inactive; nothing else

[
  {
    "Compound": "O=c1[nH]c2ccccc2c2nc3ccccc3n12",
    "Discrete Label": "no (0)"
  },
  {
    "Compound": "NC(N)=NCCCS(=O)(=O)Nc1ccc(Nc2c3ccccc3nc3cc([N+](=O)[O-])ccc23)cc1",
    "Discrete Label": "no (0)"
  },
  {
    "Compound": "Nc1ccc(CCl)cc1Cc1c(O)ccc2ccccc12",
    "Discrete Label": "no (0)"
  }
]

Task: Each compound tested received a call. Report the one for CC(=O)OCC1OC(O[C@H]2C=C[C@@H](C(=O)OCc3ccccc3)n3c(=O)n(-c4ccccc4)c(=O)n32)C(OC(C)=O)C(OC(C)=O)C1OC(C)=O (stereo partly specified) .
Output: no (0)

Task: Each compound tested received a call. Report the one for O=C1c2cccc3cc([N+](=O)[O-])cc(c23)C(=O)N1CCN1CCCC1 .
Output: no (0)

Task: Each compound tested received a call. Report the one for N#Cc1sc2c(c1OC(=O)c1ccco1)c(=O)n(-c1ccccc1)c(=S)n2-c1ccccc1 .
Output: yes (1)

Task: Each compound tested received a call. Report the one for c1ccc2c(c1)ccc1c3ccncc3ccc21 .
Output: yes (1)

Task: Each compound tested received a call. Report the one for CC(=O)C1(O)Cc2c(O)c3c(c(O)c2C(OC2CC(N)C(O)C(C)O2)C1)C(=O)c1ccccc1C3=O (stereo unspecified) .
Output: yes (1)

Task: Each compound tested received a call. Report the one for CN(NC(=O)/C(=C/c1ccc(O)cc1)NC(=O)c1ccccc1)c1ccnc2cc(Cl)ccc12 .
Output: no (0)

Task: Each compound tested received a call. Report the one for CC(=O)[C@]1(O)Cc2c(O)c3c(c(O)c2[C@@H](OC2CC(N)C(O)C(C)O2)C1)C(=O)c1c(OCc2ccccc2)cccc1C3=O (stereo partly specified) .
Output: no (0)

Task: Each compound tested received a call. Report the one for CCCCCCCCN1C(=O)c2ccccc2C1=O .
Output: no (0)

Task: Each compound tested received a call. Report the one for CC(=O)N1C(=O)/C(=C\C(=O)c2ccc([N+](=O)[O-])cc2)c2ccccc21 .
Output: yes (1)

Task: Each compound tested received a call. Report the one for O=C1c2c(O)cccc2-c2nn(CCNCCO)c3ccc(NCCNCCO)c1c23 .
Output: no (0)

====

test: NCI Yeast Anticancer Drug Screen. Data for the rad14 strain (AID 159);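 further: 0% = growth of vehicle-treated control cultures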; conditions: S. cerevisiae rad14 strain growth inhibition; at 100.0 µM; stronger effect = higher value
The panel holds about 79,000 compounds, 15% with a hit somewhere; the sample as a whole holds those more often.
growth inhibition vs 70%: at or above is true (1), below is false (0).

[
  {
    "Input Smiles": "CN[C@@H]1C[C@H]2O[C@@](C)([C@@H]1OC)n1c3ccccc3c3c4c(c5c6ccccc6n2c5c31)C(=O)N[C@@H]4O",
    "Discrete Label": "false (0)"
  },
  {
    "Input Smiles": "NC(N)=NCCCS(=O)(=O)Nc1ccc(Nc2c3ccccc3nc3cc([N+](=O)[O-])ccc23)cc1",
    "Discrete Label": "true (1)"
  },
  {
    "Input Smiles": "O=NN(CCCl)C(=O)NC1CCCCC1",
    "Discrete Label": "false (0)"
  }
]

Task: Does O=c1ccc(N=Nc2ccccc2)ccc1O have a reported growth inhibition of at least 70%?
Output: true (1)

Task: Does COC(=O)CSc1nnc(CSc2ccc(Cl)cc2)n1-c1ccccc1 have a reported growth inhibition of at least 70%?
Output: false (0)

Task: Does CNc1ccc(Cc2c[nH]c3ccccc23)cc1 have a reported growth inhibition of at least 70%?
Output: false (0)

====

experiment: NCI Yeast Anticancer Drug Screen. Data for the CLN2oe strain (AID 163);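 further: 0% = growth of vehicle-only control cultures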; conditions: S. cerevisiae CLN2oe strain, at 33.0 µM, stronger effect = higher value
This is part of a sample that, as a whole, favours compounds with a hit. Of some 79,000 tested, about 15% had one in any assay.
Measured Attribute: growth inhibition (%)
A number alone suffices; assume %.

Use the examples below as a reference point.
[
  {
    "Molecule": "O=S(=O)(N/N=C/c1cccc(Cl)c1)c1ccccc1",
    "growth inhibition [%]": 84
  },
  {
    "Molecule": "CCOC(=O)c1csc(Br)n1",
    "growth inhibition [%]": 0
  },
  {
    "Molecule": "O=C(/C=C/c1cccc2ccccc12)c1ccc(Cl)cc1",
    "growth inhibition [%]": -35
  },
  {
    "Molecule": "Cc1cc(O)c2c(c1O)C(=O)C13C(=C2O)C(=O)C2C(O)C1C1C(O)C3C(=O)C3=C(O)c4c(O)cc(C)c(O)c4C(=O)C321 (stereo unspecified)",
    "growth inhibition [%]": 91
  }
]

Task: # input molecule: Nc1cc(F)cc2c1-c1ccc(F)cc1C2 ; wanted: its growth inhibition
Output: 7

Task: # input molecule: CN(C)CC1CCCc2ccccc2C1=O (stereo unspecified) ; wanted: its growth inhibition
Output: 14
